System: Escherichia coli TOP10
Assay: shrunken log2 fold change of peptide-encoding DNA abundance (4.5 h post-induction vs induction); higher = less antimicrobial activity (less host growth inhibition)
Settings: time post-induction: 4.5 h; library: site-saturation at positions 5, 18, 19, 20
PARAMETER MEASURED: shrunken log2 fold change
Could you keep your reply to the number by itself?

Check out these entries, answers already filled in.
>  <ENTRY SEQUENCE>
RRIRTRPPRLPRPRPRPGVIPRP

>  <TEST TARGET>
Escherichia coli TOP10

>  <shrunken log2 fold change>
0.0978

$$$$
>  <ENTRY SEQUENCE>
RRIRARPPRLPRPRPRPWFFPRP

>  <TEST TARGET>
Escherichia coli TOP10

>  <shrunken log2 fold change>
0.089

$$$$
>  <ENTRY SEQUENCE>
RRIRPRPPRLPRPRPRPWQDPRP

>  <TEST TARGET>
Escherichia coli TOP10

>  <shrunken log2 fold change>
0.115

$$$$

Consider the record given below.
query: Find the recorded shrunken log2 fold change belonging to "RRIRRRPPRLPRPRPRPHPLPRP" and report it.
result: 0.211

====

Test system: Escherichia coli TOP10
Assay: shrunken log2 fold change of peptide-encoding DNA abundance (4.5 h post-induction vs induction); higher = less antimicrobial activity (less host growth inhibition)
Details: time post-induction: 4.5 h; library: site-saturation at positions 5, 18, 19, 20
The threshold is inclusive: shrunken log2 fold change of exactly -0.2 counts as 1; values below receive -1.

>  <ENTRY SEQUENCE>
RRIRNRPPRLPRPRPRPGHSPRP

>  <ASSIGNED CATEGORY>
1

$$$$
>  <ENTRY SEQUENCE>
RRIRWRPPRLPRPRPRPGGVPRP

>  <ASSIGNED CATEGORY>
1

$$$$
>  <ENTRY SEQUENCE>
RRIRQRPPRLPRPRPRPYLWPRP

>  <ASSIGNED CATEGORY>
1

$$$$
>  <ENTRY SEQUENCE>
RRIRWRPPRLPRPRPRPQICPRP

>  <ASSIGNED CATEGORY>
1

$$$$
>  <ENTRY SEQUENCE>
RRIRARPPRLPRPRPRPHPQPRP

>  <ASSIGNED CATEGORY>
1

$$$$

query: Is the recorded value of shrunken log2 fold change equal to or greater than -0.2 for this sequence? "RRIRARPPRLPRPRPRPQWVPRP"
result: 1

query: Is the recorded value of shrunken log2 fold change equal to or greater than -0.2 for this sequence? "RRIRHRPPRLPRPRPRPQPMPRP"
result: 1

query: Is the recorded value of shrunken log2 fold change equal to or greater than -0.2 for this sequence? "RRIRYRPPRLPRPRPRPHYHPRP"
result: -1

query: Is the recorded value of shrunken log2 fold change equal to or greater than -0.2 for this sequence? "RRIRHRPPRLPRPRPRPWQYPRP"
result: 1

====

Test system: Escherichia coli TOP10
Assay: shrunken log2 fold change of peptide-encoding DNA abundance (4.5 h post-induction vs induction); higher = less antimicrobial activity (less host growth inhibition)
Settings: time post-induction: 4.5 h; library: site-saturation at positions 5, 18, 19, 20
PARAMETER MEASURED: shrunken log2 fold change
Could you keep your reply to the number by itself?

Check out these entries, answers already filled in.
>  <ENTRY SEQUENCE>
RRIRPRPPRLPRPRPRPDEPPRP

>  <shrunken log2 fold change>
0.0641

$$$$
>  <ENTRY SEQUENCE>
RRIRGRPPRLPRPRPRPWKSPRP

>  <shrunken log2 fold change>
-0.207

$$$$

query: Find the recorded shrunken log2 fold change belonging to "RRIRWRPPRLPRPRPRPDYVPRP" and report it.
result: -0.208

query: Find the recorded shrunken log2 fold change belonging to "RRIRTRPPRLPRPRPRPDTPPRP" and report it.
result: -0.193

query: Find the recorded shrunken log2 fold change belonging to "RRIRYRPPRLPRPRPRPYDMPRP" and report it.
result: -1.35

====

Tested on: Escherichia coli TOP10
Assay: shrunken log2 fold change of peptide-encoding DNA abundance (4.5 h post-induction vs induction); higher = less antimicrobial activity (less host growth inhibition)
Details: time post-induction: 4.5 h; library: site-saturation at positions 5, 18, 19, 20
just bin them by shrunken log2 fold change: low = under -0.07, moderate = from -0.07 up to 0.07, high = 0.07 and over

Here's what some known entries look like.
>  <ENTRY SEQUENCE>
RRIRGRPPRLPRPRPRPTILPRP

>  <ASSIGNED CATEGORY>
high

$$$$
>  <ENTRY SEQUENCE>
RRIRLRPPRLPRPRPRPRAGPRP

>  <ASSIGNED CATEGORY>
high

$$$$
>  <ENTRY SEQUENCE>
RRIRNRPPRLPRPRPRPVVFPRP

>  <ASSIGNED CATEGORY>
low

$$$$
>  <ENTRY SEQUENCE>
RRIRQRPPRLPRPRPRPLEKPRP

>  <ASSIGNED CATEGORY>
moderate

$$$$
>  <ENTRY SEQUENCE>
RRIRIRPPRLPRPRPRPEAGPRP

>  <ASSIGNED CATEGORY>
low

$$$$
>  <ENTRY SEQUENCE>
RRIRKRPPRLPRPRPRPVKLPRP

>  <ASSIGNED CATEGORY>
moderate

$$$$
>  <ENTRY SEQUENCE>
RRIRIRPPRLPRPRPRPRSAPRP

>  <ASSIGNED CATEGORY>
high

$$$$
>  <ENTRY SEQUENCE>
RRIRRRPPRLPRPRPRPYNRPRP

>  <ASSIGNED CATEGORY>
low

$$$$

query: Consider "RRIRGRPPRLPRPRPRPWIFPRP" . To which shrunken log2 fold change class does it belong?
result: high

query: Consider "RRIRTRPPRLPRPRPRPVEEPRP" . To which shrunken log2 fold change class does it belong?
result: low

query: Consider "RRIRLRPPRLPRPRPRPVFFPRP" . To which shrunken log2 fold change class does it belong?
result: moderate

query: Consider "RRIRHRPPRLPRPRPRPIRLPRP" . To which shrunken log2 fold change class does it belong?
result: moderate

query: Consider "RRIRVRPPRLPRPRPRPSGFPRP" . To which shrunken log2 fold change class does it belong?
result: low

query: Consider "RRIRARPPRLPRPRPRPITFPRP" . To which shrunken log2 fold change class does it belong?
result: moderate

query: Consider "RRIRMRPPRLPRPRPRPIKMPRP" . To which shrunken log2 fold change class does it belong?
result: high

query: Consider "RRIRMRPPRLPRPRPRPKNFPRP" . To which shrunken log2 fold change class does it belong?
result: low

query: Consider "RRIRARPPRLPRPRPRPWRSPRP" . To which shrunken log2 fold change class does it belong?
result: high

query: Consider "RRIRERPPRLPRPRPRPNMEPRP" . To which shrunken log2 fold change class does it belong?
result: low

====

System: Escherichia coli TOP10
Assay: shrunken log2 fold change of peptide-encoding DNA abundance (4.5 h post-induction vs induction); higher = less antimicrobial activity (less host growth inhibition)
Settings: time post-induction: 4.5 h; library: site-saturation at positions 5, 18, 19, 20
The threshold is inclusive: shrunken log2 fold change of exactly -0.03 counts as 1; values below receive 0.

Here's what some known entries look like.
>  <ENTRY SEQUENCE>
RRIRHRPPRLPRPRPRPGMAPRP

>  <TEST TARGET>
Escherichia coli TOP10

>  <ASSIGNED CATEGORY>
1

$$$$
>  <ENTRY SEQUENCE>
RRIRPRPPRLPRPRPRPAWCPRP

>  <TEST TARGET>
Escherichia coli TOP10

>  <ASSIGNED CATEGORY>
1

$$$$
>  <ENTRY SEQUENCE>
RRIRFRPPRLPRPRPRPTPSPRP

>  <TEST TARGET>
Escherichia coli TOP10;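 further: peptides expressed intracellularly from a pBAD plasmid library in pooled LB shake-flask culture, induced with 0.3% L-arabinose, DNA abundance read by NGS, three biological replicates, DESeq2 with apeglm shrinkage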

>  <ASSIGNED CATEGORY>
1

$$$$

query: Is the recorded value of shrunken log2 fold change equal to or greater than -0.03 for this sequence? "RRIRIRPPRLPRPRPRPDAKPRP"
result: 1

query: Is the recorded value of shrunken log2 fold change equal to or greater than -0.03 for this sequence? "RRIRCRPPRLPRPRPRPSVDPRP"
result: 0

query: Is the recorded value of shrunken log2 fold change equal to or greater than -0.03 for this sequence? "RRIRTRPPRLPRPRPRPHTCPRP"
result: 0

query: Is the recorded value of shrunken log2 fold change equal to or greater than -0.03 for this sequence? "RRIRCRPPRLPRPRPRPDRAPRP"
result: 1

query: Is the recorded value of shrunken log2 fold change equal to or greater than -0.03 for this sequence? "RRIRERPPRLPRPRPRPWQGPRP"
result: 1

query: Is the recorded value of shrunken log2 fold change equal to or greater than -0.03 for this sequence? "RRIRNRPPRLPRPRPRPFFVPRP"
result: 1
